B1: PKD2L1 (parent)
chain: VFIFYYVVEEILELHIHRLRYLSS

# Variants of: B1
# test-description: protein stability index of a GFP-peptide fusion (GPS, HEK-293T) (PSI 1-6); higher = more stable;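 also: lentivirally expressed fusions sorted by FACS into six bins by GFP to DsRed ratio, PSI derived from sequencing read proportions per bin multiplied by bin number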
# experimental-setup: c terminus: a fixed tail appended
property: protein stability index
API note: the answer field is a bare number with no unit suffix.

variant-code: I16F
protein stability index: 3.25

variant-code: L12Q
protein stability index: 3.48

variant-code: F2T
protein stability index: 3.77

variant-code: I16K
protein stability index: 2.34

variant-code: E13I
protein stability index: 3.04

variant-code: V1G
protein stability index: 3

variant-code: Y21G
protein stability index: 3.65

variant-code: R18H
protein stability index: 1.63

variant-code: L14V
protein stability index: 3.38

variant-code: V7G
protein stability index: 2.25

Qu. What does the record list as protein stability index for V8G ?
Ans. 4.19

Qu. // next record V8D
Ans. 1.41

Qu. // next record H15C
Ans. 2.86

Qu. // next record L19W
Ans. 3.75
